Recorded measurements of half-life at 2 μM, one per entry
Assay: Mouse liver microsomes stability
Type: in vitro ADME
Conditions: male; Mouse liver microsomes, 2 μM compound, 0.5 mg/mL microsomes, 1 mM NADPH, 37° C
Your answer should be a plain number; it is taken to be in min.

Before answering, review these 3 worked examples.
MOLECULE | UNIT ABBREV | EXPERIMENTAL RESULT
O=C(O)Cc1ccccc1Nc1c(Cl)cccc1Cl [Diclofenac] | min | 40.7
[2H]C([2H])([2H])N(CCc1c[nH]c2ccc(SC)cc12)C([2H])([2H])[2H] [Compound I-1] | min | 6.61
CSc1ccc2[nH]cc(CCN(C)C(C)C)c2c1 [Compound I-19] | min | 10

Please look at the following molecule next.
Query: Look up half-life at 2 μM: CCN(CC)CCc1c[nH]c2ccc(SC)cc12 [Compound I-12]
Result: 6.13

----------
Recorded measurements of Remaining Percentage (%), one per entry
Assay: Mouse liver microsomes stability
Type: in vitro ADME
Details: mouse liver microsomes, Without Cofactors, 0 min
Your answer should be a plain number; it is taken to be in %.

Before answering, review these 2 worked examples.
COMPOUND | UNIT ABBREV | Remaining Percentage (%)
COc1ccc2[nH]cc(CCN3CC[C@H](OC(F)F)C3)c2c1 [(S) I-67] | % | 100.00
COc1ccc2[nH]cc(CCN3CC[C@@H](OC)C3)c2c1 [(R) I-66] | % | 100.00

Please look at the following compound next.
Query: Look up Remaining Percentage (%): COc1ccc2[nH]cc(CCN(C)CCOC(F)F)c2c1
Result: 100.00

----------
Assay: Human liver microsomes stability
Type: in vitro ADME
Settings: Human liver microsomes
Recorded measurements of Predicted hepatic CL, one per entry

Before answering, review these 5 worked examples.
MOL SMILES | Predicted hepatic CL
CSc1ccc2[nH]cc(CCN(C(C)C)C(C)C)c2c1 | 19.11 mL/min/kg
CSc1ccc2[nH]cc(CCN(C)C(C)C)c2c1 | 16.93 mL/min/kg
CCN(C)CCc1c[nH]c2ccc(SC)cc12 | 18.16 mL/min/kg
COc1ccc2[nH]cc(CCN(C)C)c2c1 | 18.09 mL/min/kg
[2H]C([2H])([2H])N(CCc1c[nH]c2ccc(SC)cc12)C([2H])([2H])[2H] | 19.31 mL/min/kg

Please look at the following compound next.
Query: Look up Predicted hepatic CL: CCN(CC)CCc1c[nH]c2ccc(SC)cc12
Result: 15.84 mL/min/kg

----------
Assay: Pharmacokinetic studies in rat (i.v.)
Format: in vivo
Conditions: male, Sprague-Dawley, rat, plasma, iv, 1.2 mg/kg, I-19 1.2 mg/kg i.v., rat plasma, 4 h, Mean ± SD; read-out: Plasma concentration
VALUE KIND: concentration at 4 h

Query: Look up concentration at 4 h: CSc1ccc2[nH]cc(CCN(C)C(C)C)c2c1 [Compound I-19]
Result: 5.35 ng/mL

----------
Target: 5-HT2B receptor (Homo sapiens, UniProt P41595)
Sequence (P41595 whole entry): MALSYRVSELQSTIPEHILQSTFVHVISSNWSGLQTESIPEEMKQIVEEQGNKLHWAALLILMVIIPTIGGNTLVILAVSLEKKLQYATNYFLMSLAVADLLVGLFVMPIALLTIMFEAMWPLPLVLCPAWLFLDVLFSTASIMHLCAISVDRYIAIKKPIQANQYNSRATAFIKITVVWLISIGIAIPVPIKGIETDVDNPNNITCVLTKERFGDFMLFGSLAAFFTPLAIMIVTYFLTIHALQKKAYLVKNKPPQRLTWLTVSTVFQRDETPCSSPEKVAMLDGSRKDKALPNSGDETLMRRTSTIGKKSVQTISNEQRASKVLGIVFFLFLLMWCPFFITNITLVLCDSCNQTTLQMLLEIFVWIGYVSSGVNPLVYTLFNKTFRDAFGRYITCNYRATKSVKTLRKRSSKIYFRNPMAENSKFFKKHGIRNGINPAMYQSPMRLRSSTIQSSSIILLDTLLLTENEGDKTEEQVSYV
Assay: h-5HT2B FLIPR calcium mobilization assay in HEK293 cells
Format: cell-based
Set-up: expressed in transfected cells; host or cells: HEK293, stably transfected
VALUE KIND: EC50

Before answering, review these 2 worked examples.
COMPOUND | EC50
COc1ccc2[nH]cc(CCN3CC[C@H](OC(F)F)C3)c2c1 [(S) I-67] | > 10 µM
CCN(C)CCc1c[nH]c2ccc(SC)cc12 [Compound I-13] | > 10 µM

Please look at the following compound next.
Query: Look up EC50: [2H]C([2H])([2H])N(CCc1c[nH]c2ccc(SC)cc12)C([2H])([2H])[2H] [Compound I-1]
Result: > 10 µM

----------
Recorded measurements of log10 of microsomal CLint at 2 μM, one per entry
Assay: Human liver microsomes stability
Format: in vitro ADME
Details: human liver microsomes, 2 μM compound, 0.5 mg/mL; read-out: CLint (μL/min/mg protein)
# log10 transformed; quantity=microsomal CLint at 2 μM; unit=µL/min/mg

Before answering, review these 5 worked examples.
COMPOUND | log10 of microsomal CLint at 2 μM
COc1ccc2[nH]cc(CCN(C)CCOC(F)F)c2c1 | 2.00
COc1ccc2[nH]cc(CCN3CC[C@@H](OC(F)F)C3)c2c1 [(R) I-67] | 1.67
CN(CCOC(F)F)CCc1c[nH]c2ccccc12 | 2.16
CN(C)CCc1c[nH]c2ccc(OCCOC(F)F)cc12 | 1.78
COc1ccc2[nH]cc(CCN3CC[C@H](OC(F)F)C3)c2c1 [(S) I-67] | 1.47

Query: Look up log10 of microsomal CLint at 2 μM: COc1ccc2[nH]cc(CCN3CC[C@@H](OC)C3)c2c1 [(R) I-66]
Result: 0.65

----------
Test: Rat liver microsomes stability
Type: in vitro ADME
Conditions: male; Rat liver microsomes; read-out: Scaled-up CLint
Experimental: The objective of this study was to estimate in vitro metabolic stability of exemplary compounds of Formula (I) or a pharmaceutically acceptable salt, solvate, and/or prodrug thereof in pooled human, male rat, and male mouse liver microsomes. The concentrations of compounds in reaction systems were evaluated by LC-MS/MS for estimating the stability in pooled human, male rat, and male mouse liver microsomes. The in vitro intrinsic clearances of test compounds were determined as well. […]
Recorded measurements of CLint scaled at 2 μM, one per entry
Your answer should be a plain number; it is taken to be in mL/min/kg.

MOL SMILES | VALUE KIND | EXPERIMENTAL RESULT
CSc1ccc2[nH]cc(CCN(C)C(C)C)c2c1 | CLint scaled at 2 μM | 24

Query: Look up CLint scaled at 2 μM: CSc1ccc2[nH]cc(CCN(C(C)C)C(C)C)c2c1
Result: 65.8

Query: Look up CLint scaled at 2 μM: CCN(C)CCc1c[nH]c2ccc(SC)cc12
Result: 182

Query: Look up CLint scaled at 2 μM: CCN(CC)CCc1c[nH]c2ccc(SC)cc12
Result: 66.4

----------
Recorded measurements of half-life, one per entry
Assay: Pharmacokinetic studies in rat (i.v.)
Assay type: in vivo
Details: male, Sprague-Dawley, rat, plasma, iv, rat plasma, i.v., second individual rat (R02/R05); estimated from 2 points only; dose 1.37 mg/kg (I-71, I-128), 1.33 mg/kg ((S) I-67); read-out: Apparent t1/2 (converted)
Your answer should be a plain number; it is taken to be in min.

MOLECULE | UNIT ABBREV | half-life
COc1ccc2[nH]cc(CCN(C)CCOC(F)F)c2c1 [Compound I-71] | min | 31.1
COc1ccc2[nH]cc(CCN3CC[C@H](OC(F)F)C3)c2c1 [(S) I-67] | min | 39.8

Please look at the following molecule next.
Query: Look up half-life: CN(C)CCc1c[nH]c2ccc(OCCOC(F)F)cc12 [Compound I-128]
Result: 13.7

----------
Assay: Pharmacokinetic studies in rat (i.v.)
Format: in vivo
Conditions: male, Sprague-Dawley, rat, plasma, iv, 1.2 mg/kg, I-12 1.2 mg/kg i.v., rat plasma, 0.25 h, Mean ± SD; read-out: Plasma concentration
VALUE KIND: concentration at 0.25 h
Mention the unit after the number when you answer.

Query: Look up concentration at 0.25 h: CCN(CC)CCc1c[nH]c2ccc(SC)cc12
Result: 52 ng/mL

----------
Experiment: Pharmacokinetic studies in rat (i.v.)
Assay type: in vivo
Details: male, Sprague-Dawley, rat, plasma, iv, 1.1 mg/kg, I-1 1.10 mg/kg i.v., rat plasma, Mean ± SD; read-out: AUC0-tlast
Method: Animals: Male Sprague-Dawley rats (˜225-350 g) from Charles River Labs were acclimatized for a minimum of 5 days prior to start of study procedures. Body weights were recorded on the day of dosing. Any abnormalities were documented including presence/absence of wet dog shakes/back muscle contractions (WDS/BMC). Dosing: Formulations were administered intravenously (i.v.) via the tail vein using a 25 G needle connected to a 1 cc syringe. […]
VALUE KIND: AUC(0-t)
Mention the unit after the number when you answer.

Query: Look up AUC(0-t): [2H]C([2H])([2H])N(CCc1c[nH]c2ccc(SC)cc12)C([2H])([2H])[2H] [Compound I-1]
Result: 11.3 ng·h/mL

----------
Experiment: Rat liver microsomes stability
Assay type: in vitro ADME
Details: male, pooled liver microsomes; rat liver microsomes; read-out: Scaled-up CLint
Recorded measurements of CLint scaled at 2 μM, one per entry

Before answering, review these 3 worked examples.
COMPOUND | CLint scaled at 2 μM
CN(CCOC(F)F)CCc1c[nH]c2ccccc12 [Compound I-130] | > 550 mL/min/kg
COc1ccc2[nH]cc(CCN(C)CCOC(F)F)c2c1 [Compound I-71] | 256 mL/min/kg
COc1ccc2[nH]cc(CCN3CC[C@@H](OC)C3)c2c1 [(R) I-66] | 139 mL/min/kg

Query: Look up CLint scaled at 2 μM: CN(C)CCc1c[nH]c2ccc(OCCOC(F)F)cc12 [Compound I-128]
Result: 334 mL/min/kg

Query: Look up CLint scaled at 2 μM: COc1ccc2[nH]cc(CCN3CC[C@H](OC(F)F)C3)c2c1 [(S) I-67]
Result: > 550 mL/min/kg

Query: Look up CLint scaled at 2 μM: COc1ccc2[nH]cc(CCN3CC[C@@H](OC(F)F)C3)c2c1 [(R) I-67]
Result: 236 mL/min/kg
